EXPERIMENTAL_DETAILS: physchem
CONDITIONS: simulated gi fluid, pH 5.2
PARAMETER: half-life

Would you kindly share the measured half-life for CC(C)OC(=O)[C@H](C)N[P@](=O)(OC[C@@]1(F)O[C@@H](n2ccc(=O)[nH]c2=O)[C@H](O)[C@@H]1O)Oc1ccccc1 ?
> 24 h

----------
EXPERIMENTAL_DETAILS: Plasma stability
CONDITIONS: male, Sprague-Dawley, rat, plasma
PARAMETER: half-life at 1 μM (min)
One number for each entry, in min.

Would you kindly share the measured half-life at 1 μM for CC(C)C(=O)OC[C@@]1(F)O[C@@H](n2ccc(=O)[nH]c2=O)[C@H](O)[C@@H]1O [EIDD-2947] ?
9
